Recorded pEC50 by entry
Biological target: T1, in vitro denatured human SOD1 (human, UniProt P00441 2-154)
T1 construct: also called Denatured SOD1; unfolded SOD1
T1 sequence (P00441 2-154 limits assumed): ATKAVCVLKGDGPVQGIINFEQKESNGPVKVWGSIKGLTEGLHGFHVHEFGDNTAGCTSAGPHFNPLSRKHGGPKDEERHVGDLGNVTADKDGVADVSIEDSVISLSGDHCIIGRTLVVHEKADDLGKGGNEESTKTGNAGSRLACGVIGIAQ
Experiment: direct ELISA, denatured human SOD1 coated at 20 µg/ml
The meaning of pEC50 here: minus log10 of the concentration in molar units.

Below, 4 binders whose answers are already recorded.
NI-204.34A3 (antibody, human IgG1, V domains shown) VH: EVQLVESGGGLVKPGGSLRVSCDVSGQRLSKAWMNWVRQTPTRGLEWVGLIKRDADGGTTEFAAPVEGRFTISRDDIQNTMTLHMTRLRVDDTGVYYCVAGDIGCIKENCRWGEGTTVTVSS VL: SYELTQPPSVSVSPGQTARITCSGDALPTKFAFWYQQKSGQAPVLVIYEDDKRPSGIPQRFSGSSSGTTATLTISGAQEEDDADYYCYSKDSTNVERVFGTGTKLSVL    8.00
NI-204.67E12 (antibody, human IgG1, V domains shown) VH: EVQLLESGGGLIRPGGSLRLSCAASGFTFSNYAMGWVRQAPGKGLEWVSAISGNGGSTYYGGSVKGRFTISRDKSKNTLYLQMNNLRADDTAVYFCAKLEAVAPTLTLRYFKHWGKGTLVTVSS VL: DIQMTQSPSTLSASVGDRVTITCRASQSISRWLAWYQQRPGRAPDLLIYDASNLESGVPSRFSGSGSGTEFTLTISSLQPGDFATYYCQQYYSYVYTFGQGTKLEIK    10.10
NI-204.12G7 (antibody, human IgG1, V domains shown) VH: EVQLVESGAEVKKPGASVTLSCKASGYTFTAYYIHWVRQAREQGLEWMGVINPSTGTTFYAQNFPDRVSVTRDTSTSTVFMELHNLKSEDTAVYYCARAISEHGSGSYSPYYWGQGTLVTVSS VL: SYVLTQPPSVSVSLGQMAAITCSGEALPKKYGYWYQQKPGQVPVLLIYRDVERPSGVPDRFSGSSSGTMVTLTISGVQAEDEADYYCLSADSSGTWVFGGGTKLTVL    10.15
NI-204.6H1 (antibody, human IgG1, V domains shown) VH: QVQLQQWGAGRLRPSETLSLTCAVYGGSFNGYARTWIRQPPGKGLEWIGEIDHRENTNYNPSLKSRVTMSVDTSKNQFSLRLNSVTAADTAVYFCARGQKNAKDQHEGFRYWGRGTLVTVSS VL: SYELTQPPSVSVSPGQTARITCSGDALPKQFAYWYQQKSGQAPKLVIFKDTERPSGIPERFSASSSGTKATLTISGVQAEDEADYYCQSADRTATSWVFGGGTKLTVL    8.30

Given NI-204.10D12 (antibody, V domains shown) VH: EVQLVESGGDLVRPGGSLRLSCVASGFTFSNYWMHWVRQAPGQRPVWVSRTNTDGRNTAYADYAKGRFTISRDNAKSTLYLQLNSLRAEDTAVYFCARLRRNVADQITHNYYMDVWGKGTLVTVSS VL: EIVLTQSPGSLAVSLGERATINCKSSQTVLYNNKNYLAWYQQKPGQPPKLLISWASSRESGVPDRFSGSGSGTDFTLTISSLQAEDVAVYYCQHYYGTPVTFGGGTKVEIK , state its recorded pEC50.
8.30
